Source: the supplement of paper PMC11208160

TEST: recombinant UMI read abundance after kanamycin selection (control-corrected) (log10(CPM+1)); higher = more efficient recombination; extreme values may be limits of the assay; sequences stand for … in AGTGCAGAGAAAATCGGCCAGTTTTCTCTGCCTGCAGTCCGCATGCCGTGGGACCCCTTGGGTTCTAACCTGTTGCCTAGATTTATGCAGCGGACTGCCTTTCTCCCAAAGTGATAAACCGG…AGGTTGGTTTCACT; site = the 11-nt donor;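 further: IS621 bridge recombinase in Escherichia coli cells against a fixed T5 target plasmid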
Listing: recombinant UMI read abundance (log10) of selected sequences

[
  {
    "RESIDUE SEQUENCE": "GGAGTCTCATGGACCGGTTTTCCCGGTAATCCGTATTTGTC (site GGAGTCTCTGA)",
    "recombinant UMI read abundance (log10)": 2.36
  },
  {
    "RESIDUE SEQUENCE": "TATTTGGCATGGACCGGTTTTCCCGGTAATCCGTATTTGCG (site TATTTGGCTCA)",
    "recombinant UMI read abundance (log10)": 0.0189
  },
  {
    "RESIDUE SEQUENCE": "GAGGATTCATGGACCGGTTTTCCCGGTAATCCGTATTTGTT (site GACGATTCTAA)",
    "recombinant UMI read abundance (log10)": 0.365
  },
  {
    "RESIDUE SEQUENCE": "ATAGGGCCATGGACCGGTTTTCCCGGTAATCCGTATTTGAC (site ATAGGGCCTGT)",
    "recombinant UMI read abundance (log10)": 0
  },
  {
    "RESIDUE SEQUENCE": "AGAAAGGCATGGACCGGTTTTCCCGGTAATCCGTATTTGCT (site AGAAAGGCTTG)",
    "recombinant UMI read abundance (log10)": 0
  },
  {
    "RESIDUE SEQUENCE": "CACCGTACATGGACCGGTTTTCCCGGTAATCCGTATTTGAT (site CACCGTACTAT)",
    "recombinant UMI read abundance (log10)": 1.95
  },
  {
    "RESIDUE SEQUENCE": "TCCGAGACATGGACCGGTTTTCCCGGTAATCCGTATTTGCG (site TCAGAGACTCG)",
    "recombinant UMI read abundance (log10)": 0.0174
  },
  {
    "RESIDUE SEQUENCE": "GGAGTCGCATGGACCGGTTTTCCCGGTAATCCGTATTTGCG (site GTAGTCGCTCG)",
    "recombinant UMI read abundance (log10)": 0.0226
  },
  {
    "RESIDUE SEQUENCE": "GATTTGGCATGGACCGGTTTTCCCGGTAATCCGTATTTGTG (site GATTTGGCTCA)",
    "recombinant UMI read abundance (log10)": 0.152
  },
  {
    "RESIDUE SEQUENCE": "CGTGGAACATGGACCGGTTTTCCCGGTAATCCGTATTTGCT (site CGTGGAACTAA)",
    "recombinant UMI read abundance (log10)": 0.202
  },
  {
    "RESIDUE SEQUENCE": "TGCTAAGCATGGACCGGTTTTCCCGGTAATCCGTATTTGGT (site TGCTAGGCTAC)",
    "recombinant UMI read abundance (log10)": 0.0128
  },
  {
    "RESIDUE SEQUENCE": "CTATGACCATGGACCGGTTTTCCCGGTAATCCGTATTTGAG (site CTATGACCTCT)",
    "recombinant UMI read abundance (log10)": 0.00436
  },
  {
    "RESIDUE SEQUENCE": "CTCGCTACATGGACCGGTTTTCCCGGTAATCCGTATTTGAG (site CTCTCTACTCT)",
    "recombinant UMI read abundance (log10)": 0.139
  },
  {
    "RESIDUE SEQUENCE": "GACCAACCATGGACCGGTTTTCCCGGTAATCCGTATTTGGT (site GACGAACCTAC)",
    "recombinant UMI read abundance (log10)": 0
  },
  {
    "RESIDUE SEQUENCE": "ATAGGTGCATGGACCGGTTTTCCCGGTAATCCGTATTTGTC (site ATAGGTGCTGA)",
    "recombinant UMI read abundance (log10)": 2.7
  },
  {
    "RESIDUE SEQUENCE": "AGCCTAGCATGGACCGGTTTTCCCGGTAATCCGTATTTGTC (site AGCCTAGCTTA)",
    "recombinant UMI read abundance (log10)": 0.0185
  },
  {
    "RESIDUE SEQUENCE": "CGTACACCATGGACCGGTTTTCCCGGTAATCCGTATTTGAC (site AGTACACCTGT)",
    "recombinant UMI read abundance (log10)": 0
  },
  {
    "RESIDUE SEQUENCE": "ACTAGAGCATGGACCGGTTTTCCCGGTAATCCGTATTTGAG (site ACTAGATCTCT)",
    "recombinant UMI read abundance (log10)": 1.65
  },
  {
    "RESIDUE SEQUENCE": "GCCCAATCATGGACCGGTTTTCCCGGTAATCCGTATTTGGT (site GCCCAATCTAC)",
    "recombinant UMI read abundance (log10)": 1.53
  },
  {
    "RESIDUE SEQUENCE": "CGTAGTCCATGGACCGGTTTTCCCGGTAATCCGTATTTGTT (site CGGAATCCTAA)",
    "recombinant UMI read abundance (log10)": 0
  },
  {
    "RESIDUE SEQUENCE": "AGATCCTCATGGACCGGTTTTCCCGGTAATCCGTATTTGTT (site AGATCCTCTAA)",
    "recombinant UMI read abundance (log10)": 2.08
  },
  {
    "RESIDUE SEQUENCE": "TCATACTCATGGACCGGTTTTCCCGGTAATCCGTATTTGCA (site TCATTCTCTTG)",
    "recombinant UMI read abundance (log10)": 0
  },
  {
    "RESIDUE SEQUENCE": "CAGGAACCATGGACCGGTTTTCCCGGTAATCCGTATTTGAT (site CGGGAACCTAT)",
    "recombinant UMI read abundance (log10)": 0
  },
  {
    "RESIDUE SEQUENCE": "CACCTGGCATGGACCGGTTTTCCCGGTAATCCGTATTTGGA (site CACTTGGCTTC)",
    "recombinant UMI read abundance (log10)": 0.0384
  },
  {
    "RESIDUE SEQUENCE": "TAGACGACATGGACCGGTTTTCCCGGTAATCCGTATTTGAC (site TAGACGACTGT)",
    "recombinant UMI read abundance (log10)": 2.6
  },
  {
    "RESIDUE SEQUENCE": "TGCTCAGCATGGACCGGTTTTCCCGGTAATCCGTATTTGGG (site AGCTCAGCTCC)",
    "recombinant UMI read abundance (log10)": 0.0267
  },
  {
    "RESIDUE SEQUENCE": "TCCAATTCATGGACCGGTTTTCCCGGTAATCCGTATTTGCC (site TCTAATTCTGG)",
    "recombinant UMI read abundance (log10)": 0
  },
  {
    "RESIDUE SEQUENCE": "ATAAGGCCATGGACCGGTTTTCCCGGTAATCCGTATTTGAT (site ATAAGGCCTAT)",
    "recombinant UMI read abundance (log10)": 0.221
  },
  {
    "RESIDUE SEQUENCE": "AACAATACATGGACCGGTTTTCCCGGTAATCCGTATTTGTC (site AACAATACTGA)",
    "recombinant UMI read abundance (log10)": 1.64
  },
  {
    "RESIDUE SEQUENCE": "TCAGGTTCATGGACCGGTTTTCCCGGTAATCCGTATTTGCT (site TCAGGTTCTAG)",
    "recombinant UMI read abundance (log10)": 1.27
  },
  {
    "RESIDUE SEQUENCE": "GATTGGACATGGACCGGTTTTCCCGGTAATCCGTATTTGGC (site GATTGGACTGG)",
    "recombinant UMI read abundance (log10)": 0
  },
  {
    "RESIDUE SEQUENCE": "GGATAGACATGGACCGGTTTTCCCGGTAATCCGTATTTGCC (site GGATAGACTCG)",
    "recombinant UMI read abundance (log10)": 0.799
  },
  {
    "RESIDUE SEQUENCE": "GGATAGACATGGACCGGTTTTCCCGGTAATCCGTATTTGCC (site GGATAGACTGA)",
    "recombinant UMI read abundance (log10)": 1.38
  },
  {
    "RESIDUE SEQUENCE": "ATCCAAACATGGACCGGTTTTCCCGGTAATCCGTATTTGAG (site ATCCAATCTCT)",
    "recombinant UMI read abundance (log10)": 0.352
  },
  {
    "RESIDUE SEQUENCE": "CATAATCCATGGACCGGTTTTCCCGGTAATCCGTATTTGTT (site CATAATCCTAA)",
    "recombinant UMI read abundance (log10)": 0.529
  },
  {
    "RESIDUE SEQUENCE": "TCGGCGGCATGGACCGGTTTTCCCGGTAATCCGTATTTGAG (site TCGGCGGCTCT)",
    "recombinant UMI read abundance (log10)": 0.464
  }
]
